test system: Staphylococcus aureus; assay: Antibacterial activity against penicillin-resistant Staphylococcus aureus ATCC 31007 by broth microdilution method; type: functional
Collected MIC values appear next to each entry.

Recorded results for 2 compounds are shown here.
Compound	MIC
CO[C@]1(C)C[C@@H](C)[C@H](OC(=O)c2ccccc2Br)[C@H](C)CN(C)CCOC(=O)[C@H](C)C(=O)[C@H](C)[C@H]1O[C@@H]1O[C@H](C)C[C@H](N(C)C)[C@H]1OC(=O)c1ccccc1Br	> 256 µg/mL
CO[C@]1(C)C[C@@H](C)[C@H](OC(=O)c2ccccc2)[C@H](C)CN(C)CCOC(=O)[C@H](C)C(=O)[C@H](C)[C@H]1O[C@@H]1O[C@H](C)C[C@H](N(C)C)[C@H]1OC(=O)c1ccccc1	> 256 µg/mL

Q: Recorded MIC of CC[C@H]1OC(=O)[C@H](C)[C@@H](O[C@H]2C[C@@](C)(OC)[C@@H](O)[C@H](C)O2)[C@H](C)[C@@H](O[C@@H]2O[C@H](C)C[C@H](N(C)C)[C@H]2O)[C@](C)(O)C[C@@H](C)CN(C)[C@H](C)[C@@H](O)[C@]1(C)O [AZITHROMYCIN] , please.
Ans: > 256 µg/mL

---

Collected MIC values appear next to each entry.
test system: Staphylococcus aureus; assay: Antibacterial activity against erythromycin-susceptible Staphylococcus aureus ATCC 25923 by broth microdilution method; assay type: functional
Field format: number, assumed mg/L, no unit text.

Smiles notation	Measure unit	MIC
CO[C@]1(C)C[C@@H](C)[C@H](OC(=O)c2ccccc2Br)[C@H](C)CN(C)CCOC(=O)[C@H](C)C(=O)[C@H](C)[C@H]1O[C@@H]1O[C@H](C)C[C@H](N(C)C)[C@H]1OC(=O)c1ccccc1Br	mg/L	128
COc1cccc(C(=O)O[C@@H]2[C@H](C)CN(C)CCOC(=O)[C@H](C)C(=O)[C@H](C)[C@@H](O[C@@H]3O[C@H](C)C[C@H](N(C)C)[C@H]3OC(=O)c3cccc(OC)c3)[C@](C)(OC)C[C@H]2C)c1	mg/L	128
COc1ccc(C(=O)O[C@@H]2[C@H](C)CN(C)CCOC(=O)[C@H](C)C(=O)[C@H](C)[C@@H](O[C@@H]3O[C@H](C)C[C@H](N(C)C)[C@H]3OC(=O)c3ccc(OC)cc3)[C@](C)(OC)C[C@H]2C)cc1	mg/L	64

Q: Recorded MIC of CO[C@]1(C)C[C@@H](C)[C@H](OC(=O)c2ccc(C(F)(F)F)cc2)[C@H](C)CN(C)CCOC(=O)[C@H](C)C(=O)[C@H](C)[C@H]1O[C@@H]1O[C@H](C)C[C@H](N(C)C)[C@H]1OC(=O)c1ccc(C(F)(F)F)cc1 , please.
Ans: 64

Q: Recorded MIC of CO[C@]1(C)C[C@@H](C)[C@H](OC(=O)c2cccc(Br)c2)[C@H](C)CN(C)CCOC(=O)[C@H](C)C(=O)[C@H](C)[C@H]1O[C@@H]1O[C@H](C)C[C@H](N(C)C)[C@H]1OC(=O)c1cccc(Br)c1 , please.
Ans: 64

Q: Recorded MIC of CO[C@]1(C)C[C@@H](C)[C@H](OC(=O)c2ccc(F)cc2)[C@H](C)CN(C)CCOC(=O)[C@H](C)C(=O)[C@H](C)[C@H]1O[C@@H]1O[C@H](C)C[C@H](N(C)C)[C@H]1OC(=O)c1ccc(F)cc1 , please.
Ans: 128

Q: Recorded MIC of CO[C@]1(C)C[C@@H](C)[C@H](OC(=O)c2cccc(C)c2)[C@H](C)CN(C)CCOC(=O)[C@H](C)C(=O)[C@H](C)[C@H]1O[C@@H]1O[C@H](C)C[C@H](N(C)C)[C@H]1OC(=O)c1cccc(C)c1 , please.
Ans: 128

Q: Recorded MIC of CO[C@]1(C)C[C@@H](C)[C@H](OC(=O)c2ccccc2)[C@H](C)CN(C)CCOC(=O)[C@H](C)C(=O)[C@H](C)[C@H]1O[C@@H]1O[C@H](C)C[C@H](N(C)C)[C@H]1OC(=O)c1ccccc1 , please.
Ans: 128

Q: Recorded MIC of CCc1ccc(C(=O)O[C@@H]2[C@H](C)CN(C)CCOC(=O)[C@H](C)C(=O)[C@H](C)[C@@H](O[C@@H]3O[C@H](C)C[C@H](N(C)C)[C@H]3OC(=O)c3ccc(CC)cc3)[C@](C)(OC)C[C@H]2C)cc1 , please.
Ans: 64

---

test system: Staphylococcus aureus; test: Antibacterial activity against erythromycin-susceptible Staphylococcus aureus ATCC 25923 by broth microdilution method; assay type: functional
Collected MIC values appear next to each entry.

Smiles notation	Measured
CC[C@H]1OC(=O)[C@H](C)[C@@H](O[C@H]2C[C@@](C)(OC)[C@@H](O)[C@H](C)O2)[C@H](C)[C@@H](O[C@@H]2O[C@H](C)C[C@H](N(C)C)[C@H]2O)[C@](C)(O)C[C@@H](C)CN(C)[C@H](C)[C@@H](O)[C@]1(C)O	≤ 0.25 µg/mL

Q: Recorded MIC of CO[C@]1(C)C[C@@H](C)[C@H](OC(=O)c2ccc([N+](=O)[O-])cc2)[C@H](C)CN(C)CCOC(=O)[C@H](C)C(=O)[C@H](C)[C@H]1O[C@@H]1O[C@H](C)C[C@H](N(C)C)[C@H]1OC(=O)c1ccc([N+](=O)[O-])cc1 , please.
Ans: 64 µg/mL

Q: Recorded MIC of CO[C@]1(C)C[C@@H](C)[C@H](OC(=O)c2cccc(Cl)c2)[C@H](C)CN(C)CCOC(=O)[C@H](C)C(=O)[C@H](C)[C@H]1O[C@@H]1O[C@H](C)C[C@H](N(C)C)[C@H]1OC(=O)c1cccc(Cl)c1 , please.
Ans: 64 µg/mL

Q: Recorded MIC of CO[C@]1(C)C[C@@H](C)[C@H](OC(=O)c2ccc(Br)cc2)[C@H](C)CN(C)CCOC(=O)[C@H](C)C(=O)[C@H](C)[C@H]1O[C@@H]1O[C@H](C)C[C@H](N(C)C)[C@H]1OC(=O)c1ccc(Br)cc1 , please.
Ans: 128 µg/mL

Q: Recorded MIC of CO[C@]1(C)C[C@@H](C)[C@H](OC(=O)c2cccc(C(F)(F)F)c2)[C@H](C)CN(C)CCOC(=O)[C@H](C)C(=O)[C@H](C)[C@H]1O[C@@H]1O[C@H](C)C[C@H](N(C)C)[C@H]1OC(=O)c1cccc(C(F)(F)F)c1 , please.
Ans: 128 µg/mL

Q: Recorded MIC of CO[C@]1(C)C[C@@H](C)[C@H](OC(=O)c2cc(Cl)cc(Cl)c2)[C@H](C)CN(C)CCOC(=O)[C@H](C)C(=O)[C@H](C)[C@H]1O[C@@H]1O[C@H](C)C[C@H](N(C)C)[C@H]1OC(=O)c1cc(Cl)cc(Cl)c1 , please.
Ans: 128 µg/mL

Q: Recorded MIC of CO[C@]1(C)C[C@@H](C)[C@H](OC(=O)c2ccc(Cl)cc2)[C@H](C)CN(C)CCOC(=O)[C@H](C)C(=O)[C@H](C)[C@H]1O[C@@H]1O[C@H](C)C[C@H](N(C)C)[C@H]1OC(=O)c1ccc(Cl)cc1 , please.
Ans: 128 µg/mL

Q: Recorded MIC of CCCc1ccc(C(=O)O[C@@H]2[C@H](C)CN(C)CCOC(=O)[C@H](C)C(=O)[C@H](C)[C@@H](O[C@@H]3O[C@H](C)C[C@H](N(C)C)[C@H]3OC(=O)c3ccc(CCC)cc3)[C@](C)(OC)C[C@H]2C)cc1 , please.
Ans: 64 µg/mL

---

system: Staphylococcus aureus; experiment: Antibacterial activity against penicillin-resistant Staphylococcus aureus ATCC 31007 by broth microdilution method; format: functional
Quantity: MIC

Smiles notation	MIC
CO[C@]1(C)C[C@@H](C)[C@H](OC(=O)c2cccc(C(F)(F)F)c2)[C@H](C)CN(C)CCOC(=O)[C@H](C)C(=O)[C@H](C)[C@H]1O[C@@H]1O[C@H](C)C[C@H](N(C)C)[C@H]1OC(=O)c1cccc(C(F)(F)F)c1	> 256 µg/mL

Kindly consider the entry below.
Q: Recorded MIC of COc1cccc(C(=O)O[C@@H]2[C@H](C)CN(C)CCOC(=O)[C@H](C)C(=O)[C@H](C)[C@@H](O[C@@H]3O[C@H](C)C[C@H](N(C)C)[C@H]3OC(=O)c3cccc(OC)c3)[C@](C)(OC)C[C@H]2C)c1 , please.
Ans: > 256 µg/mL
